- EXPERIMENT: refractive index (Na D-line) (dimensionless); xn = mol fraction of the nth substance listed
- CONDITION LABEL: 308.15 K; 100.5 kPa; Liquid; Standard Abbe refractometry; x1 = 0.5
PROPERTY NAME: refractive index
Number, no unit, nothing else.

These recorded examples may help you get a feel for the data.
[
  {
    "COMPOUND": "CCCCCC(=O)OCC [ethyl hexanoate] + CCO",
    "PROPERTY NAME": "refractive index",
    "OBSERVED VALUE": 1.38847
  },
  {
    "COMPOUND": "CCOC(=O)Cc1ccccc1 [ethyl phenylacetate] + CCO",
    "PROPERTY NAME": "refractive index",
    "OBSERVED VALUE": 1.455
  }
]

// field: refractive index; key: CCCCCCCC(=O)OCC [ethyl octanoate] + CCO ; value = 1.39835

// field: refractive index; key: CCOC(=O)c1ccccc1 [ethyl benzoate] + CCO ; value = 1.45841

// field: refractive index; key: CC(=O)OCCC(C)C [3-methylbutyl ethanoate] + CCO ; value = 1.38251

// field: refractive index; key: CCCC(=O)OCCC(C)C [3-methylbutyl butanoate] + CCO ; value = 1.3918
